B1: H2-Kb / Ed21 (parent complex)
chain 1: AQSVTQPDARVTVSEGASLQLRCKYSYFGTPYLFWYVQYPRQGLQLLLKYYPGDPVVQGVNGFEAEFSKSNSSFHLRKASVHWSDWAVYFCAVSMSGGYKVVFGSGTRLLVSP
chain 2: DSGVVQSPRHIIKEKGGRSVLTCIPISGHSNVVWYQQTLGKELKFLIQHYEKVERDKGFLPSRFSVQQFDDYHSEMNMSALELEDSAMYFCASSPRQTDYTFGSGTRLLVI
chain 3: not shown
chain 4: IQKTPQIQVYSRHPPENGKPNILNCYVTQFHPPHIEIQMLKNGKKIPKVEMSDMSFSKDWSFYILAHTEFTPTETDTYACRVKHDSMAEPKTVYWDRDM
chain 5: SIINFEKL

Variants of: B1
ASSAY_EXPLANATION: % of reporter cells activated (NFAT-GFP), raw; note: test concentration or dose not given here
MEASURED_ATTRIBUTE: ratio to parent

- MUTATION_SPEC: "chain 5 I2L"
  ratio to parent: 1.02
- MUTATION_SPEC: "chain 5 I2M"
  ratio to parent: 0.976
- MUTATION_SPEC: "chain 5 I3H"
  ratio to parent: 1
- MUTATION_SPEC: "chain 5 I2F"
  ratio to parent: 0.951
- MUTATION_SPEC: "chain 5 I2A"
  ratio to parent: 1.04

## Input Which ratio to parent is listed for chain 5 L8M ?
## Output 0.887

## Input Which ratio to parent is listed for chain 5 K7Q ?
## Output 0.568

## Input Which ratio to parent is listed for chain 5 F5V ?
## Output 0.909

Origin of measurements: paper PMC11480844
